The measured values listed here are drawn from PubChem BioAssay AID1996.

conditions: buffer; pH 7.4; 200.0 µM
observable: solubility kinetic

Example cases with answers are listed next.
{"compound": "CC(C)CC(=O)Nc1cc2c3c(c1)CCN3C(=O)CC2", "solubility kinetic": "> 40.9 µg/mL"}
{"compound": "COc1cccc(-c2nc(-c3cccs3)no2)c1", "solubility kinetic": "< 0.3 µg/mL"}
{"compound": "CC1CCC(NC(=O)CCNC(=O)c2ccccc2)CC1 (configuration not stated)", "solubility kinetic": "> 43.3 µg/mL"}

Next, consider the following compound.
Query (compound): O=S(=O)(O)c1ccc(SCc2ccccc2)nc1 ; field requested: solubility kinetic > 42.2 µg/mL
